target: recombinant rat VEGF164 (rat) (UniProt P16612); assay: Biacore SPR, VEGF immobilized, pH 5
measured property: kon (M⁻¹ s⁻¹)
// note: answer is a bare numeric in M⁻¹ s⁻¹

Solved entries (count: 2):
binder: 578-min (scFv, also called EP578 min; Protein Nr; 820) scFv: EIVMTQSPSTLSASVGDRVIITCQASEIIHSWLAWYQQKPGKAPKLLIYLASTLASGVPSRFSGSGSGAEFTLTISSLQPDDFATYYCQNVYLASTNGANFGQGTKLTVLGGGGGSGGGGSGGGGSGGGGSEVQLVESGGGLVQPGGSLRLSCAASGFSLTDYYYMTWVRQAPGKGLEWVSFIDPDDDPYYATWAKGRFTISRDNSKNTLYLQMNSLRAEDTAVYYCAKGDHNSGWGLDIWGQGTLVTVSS
kon (M⁻¹ s⁻¹): 1.7e+06
//
binder: 567-min (scFv, also called Protein Nr; 884) scFv: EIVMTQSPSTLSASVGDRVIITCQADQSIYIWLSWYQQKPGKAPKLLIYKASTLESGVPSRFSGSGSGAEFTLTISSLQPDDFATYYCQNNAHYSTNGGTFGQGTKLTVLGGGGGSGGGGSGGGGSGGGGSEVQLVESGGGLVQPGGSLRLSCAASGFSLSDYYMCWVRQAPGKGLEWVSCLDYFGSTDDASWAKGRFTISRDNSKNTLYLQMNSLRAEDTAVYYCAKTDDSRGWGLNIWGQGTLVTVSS
kon (M⁻¹ s⁻¹): 1.72e+06

Now for the binder whose kon we want.
Task: Bench note: what kon did 578min_max T84N_V89L (scFv, the VH entry already carries T84N and V89L; tied by name; also called Protein No. 1008) scFv: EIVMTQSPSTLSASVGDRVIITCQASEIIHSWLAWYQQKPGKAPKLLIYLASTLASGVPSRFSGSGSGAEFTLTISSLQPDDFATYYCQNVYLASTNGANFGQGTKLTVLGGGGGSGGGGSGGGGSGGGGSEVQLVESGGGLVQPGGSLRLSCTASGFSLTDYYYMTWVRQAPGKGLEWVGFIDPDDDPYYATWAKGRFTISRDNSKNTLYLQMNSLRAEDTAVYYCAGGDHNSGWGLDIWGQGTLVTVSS show?
Result: 802000
